Values from the supplement of paper PMC10307832

Test system: NCI-H1355
Experiment: relative viability (nuclei count vs DMSO), 5 days (fraction); higher = more cells survive
Conditions: first compound 0.02 µM
Catalogue of relative viability values
# answer = number (no unit)

Recorded relative viability (compound CC(=O)O[C@@]12CO[C@@H]1C[C@H](O)[C@@]1(C)C(=O)[C@H](O)C3=C(C)[C@@H](OC(=O)[C@H](O)[C@@H](NC(=O)OC(C)(C)C)c4ccccc4)C[C@@](O)([C@@H](OC(=O)c4ccccc4)[C@H]21)C3(C)C [Docetaxel] + CCNC(=O)c1noc(-c2cc(C(C)C)c(O)cc2O)c1-c1ccc(CN2CCOCC2)cc1 [Luminespib] (partner 0.01 µM) ): 0.194

get_value(item= CC(=O)O[C@@]12CO[C@@H]1C[C@H](O)[C@@]1(C)C(=O)[C@H](O)C3=C(C)[C@@H](OC(=O)[C@H](O)[C@@H](NC(=O)OC(C)(C)C)c4ccccc4)C[C@@](O)([C@@H](OC(=O)c4ccccc4)[C@H]21)C3(C)C [Docetaxel] + C[C@]1(O)C[C@@H](c2nc(-c3ccc4ccc(-c5ccccc5)nc4c3)c3c(N)nccn32)C1 [Linsitinib] (partner 1 µM) , readout=relative viability) returns 0.188

Value of measured relative viability for the entry CC(=O)O[C@@]12CO[C@@H]1C[C@H](O)[C@@]1(C)C(=O)[C@H](O)C3=C(C)[C@@H](OC(=O)[C@H](O)[C@@H](NC(=O)OC(C)(C)C)c4ccccc4)C[C@@](O)([C@@H](OC(=O)c4ccccc4)[C@H]21)C3(C)C [Docetaxel] + O=C(c1cc(Cc2n[nH]c(=O)c3ccccc23)ccc1F)N1CCN(C(=O)C2CC2)CC1 [Olaparib] (partner 8 µM) : 0.164

Sample CC(=O)O[C@@]12CO[C@@H]1C[C@H](O)[C@@]1(C)C(=O)[C@H](O)C3=C(C)[C@@H](OC(=O)[C@H](O)[C@@H](NC(=O)OC(C)(C)C)c4ccccc4)C[C@@](O)([C@@H](OC(=O)c4ccccc4)[C@H]21)C3(C)C [Docetaxel] + NC(=O)Nc1cc(-c2cccc(F)c2)sc1C(=O)N[C@H]1CCCNC1 [AZD7762] (partner 0.2 µM) ; relative viability observed: 0.191

---

// relative viability lookup, one value per entry
System: NCI-H1755
Assay: relative viability (nuclei count vs DMSO), 5 days (fraction); higher = more cells survive
Details: first compound 0.005 µM

Reading of relative viability for Nc1ccn([C@@H]2O[C@H](CO)[C@@H](O)[C@@H]2O)c(=O)n1 [Cytarabine] + Cc1nc(Nc2ncc(C(=O)Nc3c(C)cccc3Cl)s2)cc(N2CCN(CCO)CC2)n1 [Dasatinib] (partner 0.075 µM) with NCI-H1755: 0.439

Known value: NCI-H1755 relative viability of the compound COc1cc2nccc(Oc3ccc(NC(=O)Nc4cc(C)on4)c(Cl)c3)c2cc1OC [Tivozanib] + COc1cc2c(Oc3ccc(NC(=O)C4(C(=O)Nc5ccc(F)cc5)CC4)cc3F)ccnc2cc1OCCCN1CCOCC1 [Foretinib] (partner 0.25 µM) equals 0.916

Observed relative viability on NCI-H1755, entry Nc1ccn([C@@H]2O[C@H](CO)[C@@H](O)[C@@H]2O)c(=O)n1 [Cytarabine] + O=C(c1cc(Cc2n[nH]c(=O)c3ccccc23)ccc1F)N1CCN(C(=O)C2CC2)CC1 [Olaparib] (partner 8 µM) , equals 0.893

Entry Nc1ccn([C@@H]2O[C@H](CO)[C@@H](O)[C@@H]2O)c(=O)n1 [Cytarabine] + Nc1ncn([C@H]2C[C@H](O)[C@@H](CO)O2)c(=O)n1 [Decitabine] (partner 2 µM) under NCI-H1755 had relative viability of 0.705

Result for Nc1ccn([C@@H]2O[C@H](CO)[C@@H](O)[C@@H]2O)c(=O)n1 [Cytarabine] + Cc1nc(NC(=O)N2CCC[C@H]2C(N)=O)sc1-c1ccnc(C(C)(C)C(F)(F)F)c1 [Alpelisib] (partner 2 µM) , tested on NCI-H1755, relative viability: 0.925

---

Parameter relative viability: see the listing below.
System: NCI-H1792
Assay: relative viability (nuclei count vs DMSO), 5 days (fraction); higher = more cells survive
Settings: first compound 1.265 µM

Notebook: Cc1sc2c(c1C)C(c1ccc(Cl)cc1)=N[C@@H](CC(=O)OC(C)(C)C)c1nnc(C)n1-2 [JQ1] + N=C(N)NC(=N)NCCc1ccccc1 [Phenformin] (partner 250 µM) , relative viability read as 0.106

molecule Cc1sc2c(c1C)C(c1ccc(Cl)cc1)=N[C@@H](CC(=O)OC(C)(C)C)c1nnc(C)n1-2 [JQ1] + CC1(C)CCC(c2ccc(Cl)cc2)=C(CN2CCN(c3ccc(C(=O)NS(=O)(=O)c4ccc(N[C@H](CCN5CCOCC5)CSc5ccccc5)c(S(=O)(=O)C(F)(F)F)c4)cc3)CC2)C1 [Navitoclax] (partner 0.5 µM) , relative viability observed: 0.622

---

Tested on: NCI-H2228
Assay: relative viability (nuclei count vs DMSO), 5 days (fraction); higher = more cells survive
Conditions: first compound 0.05 µM
property-name: relative viability
Returns: the value as a bare number; no unit string appended.

compound	quantitative-readout
COc1cc2nccc(Oc3ccc(NC(=O)Nc4cc(C)on4)c(Cl)c3)c2cc1OC [Tivozanib] + CC(C)C[C@H](NC(=O)[C@H](Cc1ccccc1)NC(=O)c1cnccn1)B(O)O [Bortezomib] (partner 0.002 µM)	1.02
COc1cc2nccc(Oc3ccc(NC(=O)Nc4cc(C)on4)c(Cl)c3)c2cc1OC [Tivozanib] + CS(=O)(=O)N1CCN(Cc2cc3nc(-c4cccc5[nH]ncc45)nc(N4CCOCC4)c3s2)CC1 [Pictilisib] (partner 1 µM)	0.528

Okay, next one:
response.value for Nc1ccn([C@@H]2O[C@H](CO)[C@@H](O)[C@@H]2O)c(=O)n1 [Cytarabine] + Nc1nc2[nH]cc(CCc3ccc(C(=O)N[C@@H](CCC(=O)O)C(=O)O)cc3)c2c(=O)[nH]1 [Pemetrexed] (partner 0.2 µM) (field: relative viability) = 0.134

---

Test system: NCI-H1755
Experiment: relative viability (nuclei count vs DMSO), 5 days (fraction); higher = more cells survive
Conditions: first compound 0.253 µM
property-name: relative viability
API doc: respond with a numeric literal and nothing else, no unit.

Illustrative cases are given below, each with its answer.
compound	quantitative-readout
Cc1cnc(-c2cnc(NCCNc3ccc(C#N)cn3)nc2-c2ccc(Cl)cc2Cl)[nH]1 + CCNC(=O)c1noc(-c2cc(C(C)C)c(O)cc2O)c1-c1ccc(CN2CCOCC2)cc1 [Luminespib] (partner 0.01 µM)	0.327
Cc1cnc(-c2cnc(NCCNc3ccc(C#N)cn3)nc2-c2ccc(Cl)cc2Cl)[nH]1 + Cc1nc(NC(=O)N2CCC[C@H]2C(N)=O)sc1-c1ccnc(C(C)(C)C(F)(F)F)c1 [Alpelisib] (partner 2 µM)	0.851

Let us move to another entry and its relative viability.
So for O=c1[nH]c2ccccc2n1C1CCN(CCCC(c2ccc(F)cc2)c2ccc(F)cc2)CC1 [Pimozide] + O=C(c1cc(Cc2n[nH]c(=O)c3ccccc23)ccc1F)N1CCN(C(=O)C2CC2)CC1 [Olaparib] (partner 8 µM) , the logged relative viability turned out to be 0.842

---

System: NCI-H1651
Assay: relative viability (nuclei count vs DMSO), 5 days (fraction); higher = more cells survive
Settings: first compound 0.5 µM
property-name: relative viability
When you answer, write just the number.

compound	relative viability
COc1cc2nccc(Oc3ccc(NC(=O)Nc4cc(C)on4)c(Cl)c3)c2cc1OC [Tivozanib] + C[C@@H](Oc1cc(-c2cnn(C3CCNCC3)c2)cnc1N)c1c(Cl)ccc(F)c1Cl [Crizotinib] (partner 1 µM)	0.92

Reported relative viability ( COc1cc2nccc(Oc3ccc(NC(=O)Nc4cc(C)on4)c(Cl)c3)c2cc1OC [Tivozanib] + CS(=O)(=O)N1CCN(Cc2cc3nc(-c4cccc5[nH]ncc45)nc(N4CCOCC4)c3s2)CC1 [Pictilisib] (partner 1 µM) ) = 0.783

---

Tested on: NCI-H1975
Assay: relative viability (nuclei count vs DMSO), 5 days (fraction); higher = more cells survive
Settings: first compound 0.0002 µM
property-name: relative viability
Give your answer as a number; write no unit.

molecule	property-name	quantitative-readout
CC(=O)O[C@@]12CO[C@@H]1C[C@H](O)[C@@]1(C)C(=O)[C@H](O)C3=C(C)[C@@H](OC(=O)[C@H](O)[C@@H](NC(=O)OC(C)(C)C)c4ccccc4)C[C@@](O)([C@@H](OC(=O)c4ccccc4)[C@H]21)C3(C)C [Docetaxel] + C[C@@H](Oc1cc(-c2cnn(C3CCNCC3)c2)cnc1N)c1c(Cl)ccc(F)c1Cl [Crizotinib] (partner 1 µM)	relative viability	0.861
CC(=O)O[C@@]12CO[C@@H]1C[C@H](O)[C@@]1(C)C(=O)[C@H](O)C3=C(C)[C@@H](OC(=O)[C@H](O)[C@@H](NC(=O)OC(C)(C)C)c4ccccc4)C[C@@](O)([C@@H](OC(=O)c4ccccc4)[C@H]21)C3(C)C [Docetaxel] + COc1cc2c(Oc3ccc(NC(=O)C4(C(=O)Nc5ccc(F)cc5)CC4)cc3F)ccnc2cc1OCCCN1CCOCC1 [Foretinib] (partner 0.25 µM)	relative viability	0.907
CC(=O)O[C@@]12CO[C@@H]1C[C@H](O)[C@@]1(C)C(=O)[C@H](O)C3=C(C)[C@@H](OC(=O)[C@H](O)[C@@H](NC(=O)OC(C)(C)C)c4ccccc4)C[C@@](O)([C@@H](OC(=O)c4ccccc4)[C@H]21)C3(C)C [Docetaxel] + Nc1ncn([C@H]2C[C@H](O)[C@@H](CO)O2)c(=O)n1 [Decitabine] (partner 2 µM)	relative viability	0.37
CC(=O)O[C@@]12CO[C@@H]1C[C@H](O)[C@@]1(C)C(=O)[C@H](O)C3=C(C)[C@@H](OC(=O)[C@H](O)[C@@H](NC(=O)OC(C)(C)C)c4ccccc4)C[C@@](O)([C@@H](OC(=O)c4ccccc4)[C@H]21)C3(C)C [Docetaxel] + CC(=O)Nc1cccc(-n2c(=O)n(C3CC3)c(=O)c3c(Nc4ccc(I)cc4F)n(C)c(=O)c(C)c32)c1 [Trametinib] (partner 0.02 µM)	relative viability	0.386
CC(=O)O[C@@]12CO[C@@H]1C[C@H](O)[C@@]1(C)C(=O)[C@H](O)C3=C(C)[C@@H](OC(=O)[C@H](O)[C@@H](NC(=O)OC(C)(C)C)c4ccccc4)C[C@@](O)([C@@H](OC(=O)c4ccccc4)[C@H]21)C3(C)C [Docetaxel] + Cc1nc(NC(=O)N2CCC[C@H]2C(N)=O)sc1-c1ccnc(C(C)(C)C(F)(F)F)c1 [Alpelisib] (partner 2 µM)	relative viability	0.617

# ---- query molecule ----
For record CC(=O)O[C@@]12CO[C@@H]1C[C@H](O)[C@@]1(C)C(=O)[C@H](O)C3=C(C)[C@@H](OC(=O)[C@H](O)[C@@H](NC(=O)OC(C)(C)C)c4ccccc4)C[C@@](O)([C@@H](OC(=O)c4ccccc4)[C@H]21)C3(C)C [Docetaxel] + NC(=O)Nc1cc(-c2cccc(F)c2)sc1C(=O)N[C@H]1CCCNC1 [AZD7762] (partner 0.2 µM) the listed relative viability is 0.721
